# system: gp120 (SU envelope glycoprotein) (HIV-1 Ba-L) (UniProt P03375)
# protocol_description: EMSA
# details: 2'-F C and U; 1x cHBS, tRNA, room temp; also dose-dependent SPR
quantity_name: pKd
pKd (log units): -log10 of the concentration in mol/L.

Quick check: pKd of GGGAGACAAGACUAGACGCUCAAUGUGGGCCACGCCCGAUUUUACGCUUUUACCCGCACGCGAUUGGUUUGUUUCCC [B40t77] ?
7.51

###

# system: gp120 (SU envelope glycoprotein) (HIV-1 Ba-L) (UniProt P03375)
# protocol_description: EMSA
# details: 2'-F C and U; 1x cHBS (10 mM HEPES pH 7.4, 150 mM NaCl, 1 mM CaCl2, 1 mM MgCl2, 2.7 mM KCl), tRNA, room temp; also dose-dependent SPR
quantity_name: Kd (nM)
Form entry: value (nM) — number only.

Quick check: Kd of GGGAGACAAGACUAGACGCUCAAUGUGGGCCACGCCCGAUUUUACGCUUUUACCCGCACGCGAUUGGUUUGUUUUCGACAUGAGACUCACAACAGUUCCCUUUAGUGAGGGUUAAUU [B40] ?
21
